Reference source: patent US10577350B2

- assay_name: DVS moisture sorption at 25° C.
- Format: physicochemical
- settings: at 95% RH, 25° C.
quantity_kind: DVS wt gain (% wt gain)
The reply should be a number in % wt gain, with the unit left off.

INSERT INTO assay_data (compound, numeric_result) VALUES
  ('COc1cc(C)[nH]c(=O)c1CNC(=O)c1c(C)n([C@H](C)C2CCN(CC(F)(F)F)CC2)c2ccccc12 [Amorphous]', 7.4);

Shift focus to the following entry.
[in] Find the recorded DVS wt gain belonging to COc1cc(C)[nH]c(=O)c1CNC(=O)c1c(C)n([C@H](C)C2CCN(CC(F)(F)F)CC2)c2ccccc12 [Form B] and report it.
[out] 7.2

###

- assay_name: Pharmacokinetics in rat after oral suspension
- Assay type: in vivo, rats
- settings: both sexes, rat, plasma; rats (both genders), once-daily oral, suspension in 0.5% methylcellulose, 0.1% Tween 80, 100 mg/kg/day
quantity_kind: Cmax
Write the numeric value and append its unit.

[in] Find the recorded Cmax belonging to COc1cc(C)[nH]c(=O)c1CNC(=O)c1c(C)n([C@H](C)C2CCN(CC(F)(F)F)CC2)c2ccccc12 [Form C] and report it.
[out] 6140 ng/mL

###

- assay_name: DVS moisture sorption at 25° C.
- Assay type: physicochemical
- settings: after DVS; PLM, XRD, DSC, TGA
quantity_kind: Post DVS changes

INSERT INTO assay_data (compound, result) VALUES
  ('COc1cc(C)[nH]c(=O)c1CNC(=O)c1c(C)n([C@H](C)C2CCN(CC(F)(F)F)CC2)c2ccccc12 [Form C]', 'No significant'),
  ('COc1cc(C)[nH]c(=O)c1CNC(=O)c1c(C)n([C@H](C)C2CCN(CC(F)(F)F)CC2)c2ccccc12 [Form B]', 'No significant'),
  ('COc1cc(C)[nH]c(=O)c1CNC(=O)c1c(C)n([C@H](C)C2CCN(CC(F)(F)F)CC2)c2ccccc12 [Form A]', '1% reduction');

###

- assay_name: Pharmacokinetics in rat after oral suspension
- Format: in vivo, rats
- settings: plasma, oral; rat, Table 8, formulated similarly to Form C (suspension in 0.5% methylcellulose, 0.1% Tween 80), 300 mg/kg/day; read-out: AUC0-24 h
quantity_kind: AUC(0-t) (ng·h/mL)
The reply should be a number in ng·h/mL, with the unit left off.

[in] Find the recorded AUC(0-t) belonging to COc1cc(C)[nH]c(=O)c1CNC(=O)c1c(C)n([C@H](C)C2CCN(CC(F)(F)F)CC2)c2ccccc12 and report it.
[out] 78400

###

- assay_name: Pharmacokinetics in rat after oral suspension
- Assay type: in vivo, rats
- settings: plasma, oral; rat, Table 8, formulated similarly to Form C (suspension in 0.5% methylcellulose, 0.1% Tween 80), 100 mg/kg/day; read-out: AUC0-24 h
quantity_kind: AUC(0-t) (ng·h/mL)
The reply should be a number in ng·h/mL, with the unit left off.

[in] Find the recorded AUC(0-t) belonging to COc1cc(C)[nH]c(=O)c1CNC(=O)c1c(C)n([C@H](C)C2CCN(CC(F)(F)F)CC2)c2ccccc12 and report it.
[out] 24200

###

- assay_name: Pharmacokinetics in rat after oral suspension
- Format: in vivo, rats
- settings: both sexes, rat, plasma; rats (both genders), once-daily oral, suspension in 0.5% methylcellulose, 0.1% Tween 80, 600 mg/kg/day; read-out: AUC0-24 h
quantity_kind: AUC(0-t)
Write the numeric value and append its unit.

[in] Find the recorded AUC(0-t) belonging to COc1cc(C)[nH]c(=O)c1CNC(=O)c1c(C)n([C@H](C)C2CCN(CC(F)(F)F)CC2)c2ccccc12 [Form C] and report it.
[out] 128 µg·h/mL

###

- assay_name: Pharmacokinetics in rat after oral suspension
- Assay type: in vivo, rats
- settings: both sexes, rat, plasma; rats (both genders), once-daily oral, suspension in 0.5% methylcellulose, 0.1% Tween 80, 300 mg/kg/day
quantity_kind: Cmax

[in] Find the recorded Cmax belonging to COc1cc(C)[nH]c(=O)c1CNC(=O)c1c(C)n([C@H](C)C2CCN(CC(F)(F)F)CC2)c2ccccc12 [Form C] and report it.
[out] 12800 ng/mL

###

- assay_name: Pharmacokinetics in dog after oral suspension
- Format: in vivo
- settings: both sexes, dog, plasma; dogs (both genders), twice-daily oral, suspension in 0.5% methylcellulose, 0.1% Tween 80, 500 mg/kg BID
quantity_kind: Cmax (ng/mL)
The reply should be a number in ng/mL, with the unit left off.

[in] Find the recorded Cmax belonging to COc1cc(C)[nH]c(=O)c1CNC(=O)c1c(C)n([C@H](C)C2CCN(CC(F)(F)F)CC2)c2ccccc12 [Form C] and report it.
[out] 34200

###

- assay_name: Pharmacokinetics in rat after oral suspension
- Type: in vivo, rats
- settings: both sexes, rat, plasma; rats (both genders), once-daily oral, suspension in 0.5% methylcellulose, 0.1% Tween 80, 300 mg/kg/day; read-out: AUC0-24 h
quantity_kind: AUC(0-t) (ng·h/mL)
The reply should be a number in ng·h/mL, with the unit left off.

[in] Find the recorded AUC(0-t) belonging to COc1cc(C)[nH]c(=O)c1CNC(=O)c1c(C)n([C@H](C)C2CCN(CC(F)(F)F)CC2)c2ccccc12 [Form C] and report it.
[out] 86400

###

- assay_name: Pharmacokinetics in dog after oral suspension
- Format: in vivo
- settings: both sexes, dog, plasma; dogs (both genders), twice-daily oral, suspension in 0.5% methylcellulose, 0.1% Tween 80, 150 mg/kg BID; read-out: AUC0-24 h
quantity_kind: AUC(0-t) (µg·h/mL)
The reply should be a number in µg·h/mL, with the unit left off.

[in] Find the recorded AUC(0-t) belonging to COc1cc(C)[nH]c(=O)c1CNC(=O)c1c(C)n([C@H](C)C2CCN(CC(F)(F)F)CC2)c2ccccc12 [Form C] and report it.
[out] 176

###

- assay_name: Pharmacokinetics in rat after oral suspension
- Assay type: in vivo, rats
- settings: plasma, oral; rat, Table 8, formulated similarly to Form C (suspension in 0.5% methylcellulose, 0.1% Tween 80), 100 mg/kg/day
quantity_kind: Cmax (ng/mL)
The reply should be a number in ng/mL, with the unit left off.

[in] Find the recorded Cmax belonging to COc1cc(C)[nH]c(=O)c1CNC(=O)c1c(C)n([C@H](C)C2CCN(CC(F)(F)F)CC2)c2ccccc12 and report it.
[out] 7160

###

- assay_name: Pharmacokinetics in dog after oral suspension
- Type: in vivo
- settings: both sexes, dog, plasma; dogs (both genders), twice-daily oral, suspension in 0.5% methylcellulose, 0.1% Tween 80, 50 mg/kg BID; read-out: AUC0-24 h
quantity_kind: AUC(0-t)

[in] Find the recorded AUC(0-t) belonging to COc1cc(C)[nH]c(=O)c1CNC(=O)c1c(C)n([C@H](C)C2CCN(CC(F)(F)F)CC2)c2ccccc12 [Form C] and report it.
[out] 42200 ng·h/mL

###

- assay_name: Pharmacokinetics in dog after oral suspension
- Format: in vivo
- settings: both sexes, dog, plasma; dogs (both genders), twice-daily oral, suspension in 0.5% methylcellulose, 0.1% Tween 80, 150 mg/kg BID
- Description: Doses levels ranging from 50 mg/kg to 500 mg/kg were permitted to achieve pharmacological relevant systemic exposures.
quantity_kind: Cmax (ng/mL)
The reply should be a number in ng/mL, with the unit left off.

[in] Find the recorded Cmax belonging to COc1cc(C)[nH]c(=O)c1CNC(=O)c1c(C)n([C@H](C)C2CCN(CC(F)(F)F)CC2)c2ccccc12 [Form C] and report it.
[out] 21300
